Molecular target: Full length Human HDAC6 (Homo sapiens, UniProt Q9UBN7)
Sequence (Q9UBN7 1-1215): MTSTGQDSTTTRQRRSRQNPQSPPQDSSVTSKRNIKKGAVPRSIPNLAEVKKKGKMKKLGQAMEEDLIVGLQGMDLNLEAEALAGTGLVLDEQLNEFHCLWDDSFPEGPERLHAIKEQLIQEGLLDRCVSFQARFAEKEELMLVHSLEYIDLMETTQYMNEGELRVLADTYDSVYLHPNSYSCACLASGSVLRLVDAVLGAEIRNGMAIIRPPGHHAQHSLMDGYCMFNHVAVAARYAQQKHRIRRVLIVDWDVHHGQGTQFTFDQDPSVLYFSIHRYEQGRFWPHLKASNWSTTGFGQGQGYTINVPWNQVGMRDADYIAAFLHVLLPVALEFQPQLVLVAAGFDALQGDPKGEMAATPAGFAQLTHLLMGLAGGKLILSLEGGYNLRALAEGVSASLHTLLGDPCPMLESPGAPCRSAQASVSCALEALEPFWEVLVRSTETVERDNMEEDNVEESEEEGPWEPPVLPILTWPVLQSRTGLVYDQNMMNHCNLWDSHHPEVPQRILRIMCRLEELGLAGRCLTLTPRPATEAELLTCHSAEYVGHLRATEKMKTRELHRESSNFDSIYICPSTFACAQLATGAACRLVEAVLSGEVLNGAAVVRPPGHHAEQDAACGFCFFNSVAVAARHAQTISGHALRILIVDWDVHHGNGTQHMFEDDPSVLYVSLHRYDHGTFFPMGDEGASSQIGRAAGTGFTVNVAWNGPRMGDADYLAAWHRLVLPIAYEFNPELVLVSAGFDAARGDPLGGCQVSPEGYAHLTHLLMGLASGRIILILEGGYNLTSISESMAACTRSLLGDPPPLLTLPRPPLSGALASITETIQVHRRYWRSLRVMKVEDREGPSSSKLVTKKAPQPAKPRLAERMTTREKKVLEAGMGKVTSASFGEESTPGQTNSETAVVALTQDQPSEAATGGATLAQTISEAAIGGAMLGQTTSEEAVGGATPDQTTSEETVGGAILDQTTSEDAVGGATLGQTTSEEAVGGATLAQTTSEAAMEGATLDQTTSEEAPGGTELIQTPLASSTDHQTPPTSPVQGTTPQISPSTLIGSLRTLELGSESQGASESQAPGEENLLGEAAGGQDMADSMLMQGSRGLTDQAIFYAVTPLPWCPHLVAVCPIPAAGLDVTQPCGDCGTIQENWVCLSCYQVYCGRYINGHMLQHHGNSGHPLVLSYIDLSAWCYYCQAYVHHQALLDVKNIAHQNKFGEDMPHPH
Conditions: ratio of HDAC8 IC50/HDAC6 IC50; Table 1, number
API: label(entry) gives condition met if the entry's Selectivity (6 v 8) (fold) is strictly smaller than 3 fold; on equality or larger values it gives condition not met.

Before answering, review these 4 worked examples.
1) CN1CC2CCC(C1)N2Cc1ccc(C(=O)NO)cc1F; condition not met
2) O=C(NO)c1ccc(CN2CCc3c([nH]c4ccccc34)C2)c(F)c1; condition not met
3) CN1Cc2cc(C(=O)NO)ccc2-c2cccn21; condition met
4) CN1Cc2cc(C(=O)NO)ccc2[C@H]2CCCN21 (single isomer, unassigned); condition met

Now look at this entry.
In: Quick check: does CN1CC2(CCCCC2)CC[C@H]1Cc1cc(F)cc(C(=O)NO)c1 (single isomer, unassigned) have Selectivity (6 v 8) (fold) under 3 fold?
Out: condition not met
